Every entry's value here was drawn from BindingDB's records for doi:10.1016/j.bmcl.2007.10.101.

# MEASUREMENT_TARGET: Neuronal acetylcholine receptor subunit alpha-4 (Rattus norvegicus, UniProt P09483)
# Sequence (P09483 whole entry): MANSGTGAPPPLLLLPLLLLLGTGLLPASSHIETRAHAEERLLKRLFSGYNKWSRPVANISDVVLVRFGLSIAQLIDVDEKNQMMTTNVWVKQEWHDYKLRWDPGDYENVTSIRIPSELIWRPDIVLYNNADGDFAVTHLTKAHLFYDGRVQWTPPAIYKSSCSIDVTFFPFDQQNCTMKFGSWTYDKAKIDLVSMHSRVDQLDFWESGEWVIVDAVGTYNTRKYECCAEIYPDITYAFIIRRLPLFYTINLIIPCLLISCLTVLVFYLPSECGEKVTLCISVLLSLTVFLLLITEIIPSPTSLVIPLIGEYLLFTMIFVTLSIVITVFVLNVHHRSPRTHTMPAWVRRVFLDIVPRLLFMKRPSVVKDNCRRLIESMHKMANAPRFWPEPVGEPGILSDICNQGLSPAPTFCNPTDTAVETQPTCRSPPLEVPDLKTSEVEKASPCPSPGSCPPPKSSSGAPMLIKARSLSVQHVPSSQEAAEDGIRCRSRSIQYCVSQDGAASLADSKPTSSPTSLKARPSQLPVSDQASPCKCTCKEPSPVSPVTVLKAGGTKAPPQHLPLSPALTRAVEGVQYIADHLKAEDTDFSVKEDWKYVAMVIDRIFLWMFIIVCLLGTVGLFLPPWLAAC
MEASUREMENT_KIND: Ki

Ask | Specify measured Ki for c1cnc2[nH]c(C3CCCNC3)cc2c1 (stereo unspecified) .
Reply | > 10 µM
